- Protocol Details: basal S. cerevisiae growth modulation, no modifier, primary screen, OD600, strain BY4716, 24 h, basal condition (AID 1173)
- Test Conditions: OD600, 24 h, higher = more signal, called active from +8 up or from −8 down
Task for the reader: assign each of the following compounds its reported z-score.
The answer should be written as a number, with no unit following it.

q: Tell me z-score reported for CCOC(=O)C[C@H]1[C@H](OC(=O)c2ccccc2-c2ccccc2)[C@@H](NC(=O)c2ccc3ccccc3c2)c2cc(OCCCO)ccc2N1C(=O)c1ccc2ccccc2n1
a: 0.682

q: Tell me z-score reported for COC(=O)[C@@]1(Cc2ccccc2N=[N+]=[N-])COC(c2ccc(OCCCO)cc2)=N1
a: -10.7

q: Tell me z-score reported for N#Cc1ccc(NN2C(C(O)c3ccc([N+](=O)[O-])cc3)C=CC3C(=O)N(c4ccccc4)C(=O)C32)cc1 (configuration not stated)
a: -0.203

q: Tell me z-score reported for CC(C)N1C(=O)c2ccccc2[C@@H](C(=O)NCCCN(C)C)[C@@H]1c1ccc(CO)cc1
a: -0.725

q: Tell me z-score reported for COc1ccc(CCNC(=O)[C@@]2(Sc3ccc(C)cc3)CC(=O)N(Cc3ccccc3Cl)[C@@H]2c2ccc(CO)cc2I)cc1
a: -4.37

q: Tell me z-score reported for C=CCC(OC(C)=O)[C@@H]1[C@@H](N(Cc2ccc(-c3ccccc3)cc2)C(=O)Cc2ccc(F)cc2)c2cc(OCCCO)ccc2N1C(=O)c1ccc2ccccc2n1 (some centres not stated)
a: -0.186

q: Tell me z-score reported for Cc1c(NC(=O)CC#N)c(=O)n(-c2ccccc2)n1C
a: -0.267

q: Tell me z-score reported for CS(=O)(=O)CCOC(=O)C1=CC(CCCO)=CC(c2cccs2)N(Cc2cc3c(cc2Br)OCO3)C=C1C(=O)OCCS(C)(=O)=O (configuration not stated)
a: -2.65

q: Tell me z-score reported for COCCCNC(=O)[C@@]1(CCC(=O)OC(C)(C)C)N=C(c2ccc(OCCCO)cc2)O[C@H]1c1ccccc1CN=[N+]=[N-]
a: -0.78

q: Tell me z-score reported for O=C1O[C@@H](c2ccccc2)[C@@H](c2ccccc2)N2[C@@H](c3ccc(OCCO)cc3)[C@]3(C(=O)Nc4ccccc43)[C@@H](C(=O)Nc3nc4ccccc4s3)[C@H]12
a: 0.0135

q: Tell me z-score reported for [N-]=[N+]=Nc1ccccc1[C@H]1OC(c2ccc(OCCCO)cc2)=N[C@@]1(CCS(=O)(=O)c1ccccc1)C(=O)O
a: -1.65

q: Tell me z-score reported for COCCOC(=O)N1C(=O)[C@@]2(c3cc(C#Cc4ccc(OC)cc4)ccc31)[C@H](C(=O)N1CCN(c3ncccn3)CC1)[C@H]1C(=O)O[C@H](c3ccccc3)[C@H](c3ccccc3)N1[C@@H]2c1ccc(O)cc1
a: 0.558

q: Tell me z-score reported for COCCOC(=O)N1C(=O)[C@@]2(c3cc(C#CCCO)ccc31)[C@H](C(=O)NC[C@H](O)c1ccccc1)[C@H]1C(=O)O[C@H](c3ccccc3)[C@H](c3ccccc3)N1[C@@H]2c1ccc(O)cc1
a: 0.562

q: Tell me z-score reported for COc1ccc([Si](C)(C)[C@H]2[C@H](CCn3cc(CCO)nn3)O[C@@]3(C(=O)N(Cc4ccc(N5CCOC5=O)cc4)c4ccccc43)[C@@H]2C)cc1
a: 0.93

q: Tell me z-score reported for O=C/C=C/c1ccc(Cl)cc1
a: -18

q: Tell me z-score reported for [N-]=[N+]=NCc1ccccc1C[C@@]1(C(=O)N2CCOCC2)N=C(c2ccc(OCCCO)cc2)O[C@@H]1c1ccccc1CN=[N+]=[N-]
a: 0.418

q: Tell me z-score reported for CC(C)c1ccc(NN2C(C(O)c3cccc(O)c3)C=CC3C(=O)N(c4ccccc4)C(=O)C32)cc1 (configuration not stated)
a: -0.914

q: Tell me z-score reported for COCCOC(=O)N1C(=O)[C@@]2(c3cc(C#CCC(C(=O)OC)C(=O)OC)ccc31)[C@H](C(=O)N1CCN(c3ncccn3)CC1)[C@H]1C(=O)O[C@H](c3ccccc3)[C@H](c3ccccc3)N1[C@@H]2c1ccc(OCCO)cc1
a: 0.539

q: Tell me z-score reported for Cc1ccc(F)cc1S(=O)(=O)N[C@@H]1CCN(Cc2ccc(-c3ccccc3)cc2)C1
a: -19.1

q: Tell me z-score reported for COc1cc(C(O)C2C=CC3C(=O)N(c4ccccc4)C(=O)C3N2Nc2ccc(C#N)cc2)cc(OC)c1OC (configuration not stated)
a: -2.44

q: Tell me z-score reported for COCCOC(=O)N1C(=O)[C@@]2(c3ccccc31)[C@H](C(=O)Nc1nc3ccccc3s1)[C@H]1C(=O)O[C@H](c3ccccc3)[C@H](c3ccccc3)N1[C@@H]2c1ccc(OCCO)cc1
a: 1.42

q: Tell me z-score reported for COCCOC(=O)N1C(=O)[C@@]2(c3cc(C#CCCO)ccc31)[C@H](c1ccc(O)cc1)N1[C@H](c3ccccc3)[C@H](c3ccccc3)OC(=O)[C@H]1[C@@H]2C(N)=O
a: 0.0254

q: Tell me z-score reported for COc1ccc(C#Cc2ccc3c(c2)[C@]2(C(=O)N3)[C@H](c3ccc(O)cc3)N3[C@H](c4ccccc4)[C@H](c4ccccc4)OC(=O)[C@H]3[C@@H]2C(=O)N2CCCCCCC2)cc1
a: -1.15

q: Tell me z-score reported for CCCCC(CC)C(O)C1C=CC2C(=O)N(c3ccccc3)C(=O)C2N1Nc1ccccc1 (configuration not stated)
a: -1.14

q: Tell me z-score reported for CCCCC=C[C@@H](NC(=O)c1cccs1)c1ccccc1
a: 0.822

q: Tell me z-score reported for O=C1O[C@@H](c2ccccc2)[C@@H](c2ccccc2)N2[C@@H](c3ccccc3OCCO)[C@]3(C(=O)Nc4ccc(C#CC5(O)CCCCCC5)cc43)[C@@H](C(=O)Nc3nc4ccccc4s3)[C@H]12
a: 0.193

q: Tell me z-score reported for O=C(NCc1ccccc1)[C@]1(CCS(=O)(=O)c2ccccc2)N=C(c2ccc(OCCCO)cc2)O[C@@H]1c1ccccc1
a: 1.08
